experiment: AUC (0 to infinity) in Beagle dog at 1 mg/kg, iv measured for 0.083 to 24 hrs by LC-MS/MS analysis; format: ADME, organism-based, Canis lupus familiaris; set-up: time upper 24 hrs, time lower 0.083 hrs, dose 1 mg/kg, route iv; conditions: in vivo

{"Compound": "Nc1ccn([C@@H]2O[C@H](CO)[C@@H](OP(=O)(O)OCC(=O)OCc3ccccc3)C2(F)F)c(=O)n1", "AUC(0-inf) [ng·h/mL]": 637}
{"Compound": "Nc1ccn([C@@H]2O[C@@H]3COP(=O)(OCC(=O)OCc4ccccc4)O[C@H]3C2(F)F)c(=O)n1 (stereo partly drawn)", "AUC(0-inf) [ng·h/mL]": 520}
{"Compound": "Nc1ccn([C@@H]2O[C@H](COP(=O)(O)OCC(=O)OCc3ccccc3)[C@@H](O)C2(F)F)c(=O)n1", "AUC(0-inf) [ng·h/mL]": 637}
